Test: Cytotoxicity test (MTT), U937
Assay type: cell-based
Details: human, U937 cells (monocytic blood cancer-derived cell line); U937, 48 h, 10 μM; read-out: Cell viability (% of control)
Protocol: The human colorectal cancer cell line HT-29 and the monocytic blood cancer-derived cell line U937 were cultured in a RPMI 1640 medium containing 10% FBS and 1% penicillin/streptomycin (PS) at 37° C. under a condition of 5% CO2, and when the cells used herein were grown to 80% or more, they were subcultured at a ratio of 1:3. […]
Reported viability at 48 h, 10 µM is given for each of the following compounds.

{"smiles string": "Cc1nc(NC(=O)OCC(C)C)c(C)c(C)c1O", "viability at 48 h, 10 µM / %": 82.2}
{"smiles string": "Cc1nc(NC(=O)Nc2cccc3ccccc23)c(C)c(C)c1O", "viability at 48 h, 10 µM / %": 88.5}
{"smiles string": "COC(=O)Nc1nc(C)c(O)c(C)c1C", "viability at 48 h, 10 µM / %": 80.9}
{"smiles string": "Cc1nc(NC(=S)Nc2ccccc2)c(C)c(C)c1O", "viability at 48 h, 10 µM / %": 96.1}
{"smiles string": "Cc1cccc(C(C)(C)C)c1NC(=O)Nc1nc(C)c(O)c(C)c1C", "viability at 48 h, 10 µM / %": 85.4}
{"smiles string": "Cc1nc(NS(=O)(=O)c2ccc(C(F)(F)F)cc2)c(C)c(C)c1O", "viability at 48 h, 10 µM / %": 75.5}
{"smiles string": "Cc1nc(NC(=O)Nc2ccccc2)c(C)c(C)c1O", "viability at 48 h, 10 µM / %": 81.7}

---

Assay: Cytotoxicity test (MTT), U937
Format: cell-based
Conditions: human, U937 cells (monocytic blood cancer-derived cell line); U937, 48 h, 100 μM; read-out: Cell viability (% of control)
Reported viability at 48 h, 100 µM is given for each of the following compounds.

{"smiles string": "CCCCNC(=S)Nc1nc(C)c(O)c(C)c1C", "unit abbreviation": "%", "viability at 48 h, 100 µM": 55}
{"smiles string": "Cc1nc(NC(=O)Nc2cccc3ccccc23)c(C)c(C)c1O", "unit abbreviation": "%", "viability at 48 h, 100 µM": 79.6}
{"smiles string": "Cc1nc(NC(=O)OCCCl)c(C)c(C)c1O", "unit abbreviation": "%", "viability at 48 h, 100 µM": 79.2}
{"smiles string": "Cc1nc(NS(=O)(=O)c2ccc(C(F)(F)F)cc2)c(C)c(C)c1O", "unit abbreviation": "%", "viability at 48 h, 100 µM": 53.3}
